Biological target: human orexin-2 receptor (Homo sapiens (Human), UniProt O43614)
Sequence (O43614 whole entry): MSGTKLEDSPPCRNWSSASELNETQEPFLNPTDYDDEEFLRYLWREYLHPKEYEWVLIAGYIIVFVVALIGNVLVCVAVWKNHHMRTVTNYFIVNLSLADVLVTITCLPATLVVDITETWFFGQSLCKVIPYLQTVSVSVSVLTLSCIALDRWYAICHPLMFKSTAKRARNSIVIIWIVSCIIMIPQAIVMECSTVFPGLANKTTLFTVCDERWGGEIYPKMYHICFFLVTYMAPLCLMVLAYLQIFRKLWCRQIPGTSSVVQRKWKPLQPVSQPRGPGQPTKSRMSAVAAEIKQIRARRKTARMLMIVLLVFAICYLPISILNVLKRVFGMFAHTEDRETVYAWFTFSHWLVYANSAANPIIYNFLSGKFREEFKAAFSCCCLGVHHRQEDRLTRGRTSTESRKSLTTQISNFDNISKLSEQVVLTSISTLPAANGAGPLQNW
Experiment: Intracellular calcium measurement (FLIPR), CHO cells expressing human orexin-2 receptor, 3 nM orexin-A
Type: cell-based
Conditions: CHO cells expressing human orexin-2 receptor, FLIPR, 3 nM orexin-A; geometric mean if determined several times; read-out: IC50 OX2
So basically, if IC50 comes in under 0.05 µM it's true (1), and if it's 0.05 µM or more it's false (0).

In: Hello, is IC50 of the following molecule strictly smaller than 0.05 µM? Cc1ccc(-n2nccn2)c(C(=O)N2CCC[C@H]2c2nc(-c3cccnc3OC(C)C)no2)c1 [compound 71]
Out: true (1)

In: Hello, is IC50 of the following molecule strictly smaller than 0.05 µM? CCOc1ncccc1-c1noc([C@@H]2CCCN2C(=O)c2cc(OC)c(OC)cc2-n2nccn2)n1 [compound 226]
Out: false (0)

In: Hello, is IC50 of the following molecule strictly smaller than 0.05 µM? COc1c(F)cccc1-c1nnc([C@@H]2CCCN2C(=O)c2cc(C)ccc2-n2nccn2)o1 [Example 448]
Out: false (0)

In: Hello, is IC50 of the following molecule strictly smaller than 0.05 µM? O=C(c1cc(C(F)(F)F)ccc1-n1nccn1)N1CCC[C@H]1c1nc(-c2ccccc2OC(F)(F)F)no1 [compound 148]
Out: false (0)

In: Hello, is IC50 of the following molecule strictly smaller than 0.05 µM? Cc1ccc(-n2nccn2)c(C(=O)N2CCC[C@H]2c2nc(-c3cccc4c3OCCO4)no2)c1 [compound 38]
Out: true (1)

In: Hello, is IC50 of the following molecule strictly smaller than 0.05 µM? CCOc1ccccc1-c1nc([C@@H]2CCCN2C(=O)c2cc(C)ccc2-n2nccn2)no1 [compound 306]
Out: true (1)

In: Hello, is IC50 of the following molecule strictly smaller than 0.05 µM? Cc1ccc(-n2nccn2)c(C(=O)N2CCC[C@H]2c2cc(-c3cccc(Cl)c3C)no2)c1 [compound 424]
Out: true (1)

In: Hello, is IC50 of the following molecule strictly smaller than 0.05 µM? Cc1c(Cl)cccc1-c1noc([C@@H]2CCCN2C(=O)c2ncsc2-c2cccc(Cl)c2)n1 [compound 94]
Out: false (0)

In: Hello, is IC50 of the following molecule strictly smaller than 0.05 µM? Cc1ccc(C(=O)N2CCC[C@@]2(C)c2nnc(-c3cccc(Cl)c3C)[nH]2)c(-c2ccccc2)c1 [compound 557]
Out: false (0)

In: Hello, is IC50 of the following molecule strictly smaller than 0.05 µM? CCOc1ncccc1-c1noc([C@@H]2CCCN2C(=O)c2cc(F)cc(C)c2-n2nccn2)n1 [compound 225]
Out: false (0)

In: Hello, is IC50 of the following molecule strictly smaller than 0.05 µM? Cc1cc(C(=O)N2CCC[C@H]2c2noc(-c3cccc(Cl)c3C)n2)c(-n2nccn2)cc1C [compound 321]
Out: true (1)

In: Hello, is IC50 of the following molecule strictly smaller than 0.05 µM? Cc1cccc(-c2ocnc2C(=O)N2CCC[C@H]2c2nc(-c3cccc(Cl)c3C)no2)c1 [compound 92]
Out: false (0)

In: Hello, is IC50 of the following molecule strictly smaller than 0.05 µM? COc1cc(C(=O)N2CCC[C@H]2c2noc(-c3cc(C)ccc3C)n2)c(-n2nccn2)cc1C [compound 405]
Out: true (1)

In: Hello, is IC50 of the following molecule strictly smaller than 0.05 µM? CCc1ccccc1-c1nc([C@@H]2CCCN2C(=O)c2cc(C)ccc2-n2nccn2)no1 [compound 389]
Out: true (1)

In: Hello, is IC50 of the following molecule strictly smaller than 0.05 µM? Cc1onc(-c2ccccc2Cl)c1C(=O)N1CCC[C@H]1c1nnc(-c2cccc(Cl)c2C)o1 [Ref 9]
Out: false (0)

In: Hello, is IC50 of the following molecule strictly smaller than 0.05 µM? COc1ncccc1-c1cc([C@@H]2CCCN2C(=O)c2cc(C)ccc2-n2nccn2)on1 [compound 426]
Out: true (1)

In: Hello, is IC50 of the following molecule strictly smaller than 0.05 µM? COc1ccccc1-c1cnc([C@@H]2CCCN2C(=O)c2cc(C)ccc2-n2nccn2)[nH]1 [Example 516]
Out: true (1)

In: Hello, is IC50 of the following molecule strictly smaller than 0.05 µM? Cc1c(Cl)cccc1-c1noc([C@@H]2CCCN2C(=O)c2ccc(C(F)(F)F)cc2-n2nccn2)n1 [compound 122]
Out: false (0)

In: Hello, is IC50 of the following molecule strictly smaller than 0.05 µM? Cc1ccc(-n2nccn2)c(C(=O)N2CCC[C@H]2c2nc(-c3c(C)cccc3Cl)no2)c1 [compound 24]
Out: false (0)

In: Hello, is IC50 of the following molecule strictly smaller than 0.05 µM? COc1ccccc1-c1noc([C@@H]2CCCN2C(=O)c2cc(Cl)ccc2-n2nccn2)n1 [compound 228]
Out: false (0)

In: Hello, is IC50 of the following molecule strictly smaller than 0.05 µM? Cc1ccc(-n2nccn2)c(C(=O)N2CCC[C@@]2(C)c2nc(-c3cccc(Cl)c3C)no2)c1 [Example 541]
Out: false (0)

In: Hello, is IC50 of the following molecule strictly smaller than 0.05 µM? CCOc1c(F)cccc1-c1nnc([C@@H]2CCCN2C(=O)c2cc(C)ccc2-n2nccn2)o1 [Example 449]
Out: false (0)

In: Hello, is IC50 of the following molecule strictly smaller than 0.05 µM? COc1c(F)cccc1-c1nc([C@@H]2CCCN2C(=O)c2cc(C)ccc2-n2nccn2)no1 [compound 336]
Out: true (1)

In: Hello, is IC50 of the following molecule strictly smaller than 0.05 µM? COc1c(F)cccc1-c1nnc([C@@H]2CCCN2C(=O)c2ccc(C)cc2-n2nccn2)[nH]1 [compound 477]
Out: true (1)

In: Hello, is IC50 of the following molecule strictly smaller than 0.05 µM? COc1cccc(-c2nc([C@@H]3CCCN3C(=O)c3cc(Cl)ccc3-n3nccn3)no2)c1C [compound 361]
Out: false (0)

In: Hello, is IC50 of the following molecule strictly smaller than 0.05 µM? Cc1cc(C)cc(-c2noc([C@@H]3CCCN3C(=O)c3cc(C)ccc3-n3nccn3)n2)c1 [compound 11]
Out: true (1)

In: Hello, is IC50 of the following molecule strictly smaller than 0.05 µM? Cc1ccc(-n2nccn2)c(C(=O)N2CCC[C@H]2c2noc(-c3ccccc3OC(F)(F)F)n2)c1 [Example 303]
Out: true (1)

In: Hello, is IC50 of the following molecule strictly smaller than 0.05 µM? Cc1ccc(-n2nccn2)c(C(=O)N2CCC[C@H]2c2ncc(-c3cccc(Cl)c3C)[nH]2)c1 [compound 525]
Out: false (0)

In: Hello, is IC50 of the following molecule strictly smaller than 0.05 µM? C[C@@]1(c2nnc(-c3ccccc3OC(F)(F)F)[nH]2)CCCN1C(=O)c1cc(Cl)ccc1-n1nccn1 [compound 547]
Out: true (1)
